This listing pairs molecules with measured melting point.

Below: 3 molecules and their reported melting point.
molecule_smiles=COc1cc(/C=C/C(=O)c2c(OC)ccc3ccccc23)cc(OC)c1OC endpoint_result="113 to 114 °C"
molecule_smiles=COc1ccc(/C=C/C(=O)c2c(OC)ccc3ccccc23)cc1[N+](=O)[O-] endpoint_result="157 to 159 °C"
molecule_smiles=COc1cccc(/C=C/C(=O)c2c(OC)ccc3ccccc23)c1 endpoint_result="109 to 110 °C"

Just so you know, measured melting point for COc1ccc(/C=C/C(=O)c2c(OC)ccc3ccccc23)cc1Br came out at 168 to 169 °C

Lookup result for COc1ccc2ccccc2c1C(=O)/C=C/c1ccc(Cl)cc1 ; measured melting point: 142 to 143 °C

Form: molecule = COc1ccccc1/C=C/C(=O)c1c(OC)ccc2ccccc12 ; melting point = 124 to 126 °C

The molecule COc1ccc(/C=C/C(=O)c2c(OC)ccc3ccccc23)c(OC)c1OC showed melting point equal to 107 to 108 °C

Lab note: COc1ccc2ccccc2c1C(=O)/C=C/c1cccs1 gave melting point of 149 to 150 °C

Form: molecule = CCN(CC)c1ccc(/C=C/C(=O)c2c(OC)ccc3ccccc23)cc1 ; melting point = 142 to 144 °C

The value of melting point measured for the molecule COc1ccc2ccccc2c1C(=O)/C=C/c1ccc(N(C)C)cc1 turned out to be 147 to 148 °C

The recorded melting point for entry COc1cc(OC)c(OC)cc1/C=C/C(=O)c1c(OC)ccc2ccccc12 equals 147 to 149 °C

* * *

# Tested on: tubulin
# assay-remarks: In vitro tubulin polymerisation inhibitory assay
# Format: biochemical
# protocol-conditions: purified tubulin, absorbance 340 nm; read-out: IC50 tubulin polymerisation inhibition
measure: pIC50
Units for pIC50: none; it is -log10 of a concentration expressed in mol/L.

The reported pIC50 of the molecule COc1ccc(/C=C/C(=O)c2c(OC)ccc3ccccc23)cc1O was 5.08

* * *

measure: melting point

The cases that follow already have their melting point on record.
molecule_smiles=COc1ccc2ccccc2c1C(=O)/C=C/c1cccc(F)c1 endpoint_result="142 to 143 °C"
molecule_smiles=COc1ccc2ccccc2c1C(=O)/C=C/c1ccccc1Br endpoint_result="150 to 152 °C"
molecule_smiles=COc1ccc2ccccc2c1C(=O)/C=C/c1ccccc1 endpoint_result="142 to 144 °C"
molecule_smiles=COc1ccc2ccccc2c1C(=O)/C=C/c1cccc2ccccc12 endpoint_result="162 to 163 °C"
molecule_smiles=COc1ccc2ccccc2c1C(=O)/C=C/c1ccc(Br)cc1 endpoint_result="127 to 129 °C"

Now take the following molecule into account.
Documented melting point of COc1ccc2ccccc2c1C(=O)/C=C/c1ccc2ccccc2c1 : 107 to 109 °C

These entries and their values trace back to paper PMC6882462.
